Attribution: the supplement of paper PMC10724198

# protein stability index annotations
System: Saccharomyces cerevisiae
Test: protein stability index of tFT-peptide fusion (C-terminal peptide) (PSI (0-1 scale)); higher = more stable (slower turnover)
Settings: genetic background: wild type; temperature: 30 C
Enter the number alone.

Here's what some known entries look like.
Residue codes: GDRGTLTPLRRQ
protein stability index: 0.678
//
Residue codes: ARLTNYFVEWLS
protein stability index: 0.461
//
Residue codes: PPAPPPLSPSPI
protein stability index: 0.832
//
Residue codes: SFGSPLFFFPFL
protein stability index: 0.736

What does the data say about its protein stability index? Entry: THTTIQKTNQNE 0.703

Query (sequence): ACPAPPPPQLPR ; field requested: protein stability index 0.593

Look at this sequence and give its reported protein stability index. TPTRPLSSALRL 0.697

Which measured protein stability index value corresponds to EGREGVFGEGRA ? 0.703

Tell me the measured protein stability index of WVAADTDGEPKH , please. 0.699

Sample RKRTIVCRPGRV — what was its protein stability index? 0.698

---

System: Saccharomyces cerevisiae
Assay: protein stability index of tFT-peptide fusion (C-terminal peptide) (PSI (0-1 scale)); higher = more stable (slower turnover)
Conditions: genetic background: wild type; temperature: 30 C
Quantity measured: protein stability index
Response field accepts a number only; no unit should be typed.

Here are 5 sequences together with their reported answers.
Residue codes: CIVDFLGISSGI
protein stability index: 0.659
--
Residue codes: FVVIFRFSRFSA
protein stability index: 0.39
--
Residue codes: KNKKKKKTKKKK
protein stability index: 0.792
--
Residue codes: WGSWCLVPDGNE
protein stability index: 0.717
--
Residue codes: TSCPPPLAPSYD
protein stability index: 0.691

# query: protein stability index of entry GPGSCPVRLCGF 0.661

# lookup: protein stability index of PKRTTHIGRIHE 0.688

Name the recorded protein stability index for WIGHALPSSNSH . 0.675

Quick one: protein stability index for PPPQTRPPTPTP ? 0.741

Suppose we examine the sequence TARSTSPHHIPR ; what protein stability index value has been reported? 0.835

---

Recorded protein stability index values for a group of sequences are listed next.
Test system: Saccharomyces cerevisiae
Test: protein stability index of tFT-peptide fusion (C-terminal peptide) (PSI (0-1 scale)); higher = more stable (slower turnover)
Conditions: genetic background: wild type; temperature: 30 C
Answer using only a numeral; do not append any unit.

Examples with their reported protein stability index follow.
Residue codes: KLFESGQDSFDN [MRC1 C-terminal 12 aa]
protein stability index: 0.727

Residue codes: TVRALNPFMKRV [SSD1 C-terminal 12 aa]
protein stability index: 0.656

Residue codes: LERIVGLLLMDM [MHF2 C-terminal 12 aa]
protein stability index: 0.651

Residue codes: PDDFEFGDDDFM [HCR1 C-terminal 12 aa]
protein stability index: 0.763

Residue codes: NPGFIVEKRTID [MRPL33 C-terminal 12 aa]
protein stability index: 0.737

Residue codes: EHCPGVNEDDHK [CMG1 C-terminal 12 aa]
protein stability index: 0.701

Quick one: protein stability index for NDKGEQVVGGNE [TMA16 C-terminal 12 aa] ? 0.717

Using the record for MKRSASYTGAKV [TPS2 C-terminal 12 aa] , report its protein stability index. 0.709

For the sequence shown here, DRKRRKLLWYQA [MRPL20 C-terminal 12 aa] , give the reported protein stability index. 0.249

Given the entry CEVYCSKNSCAS [YBR099C C-terminal 12 aa] , report its measured protein stability index. 0.661

// protein stability index lookup, key: DFPHEAVVREML [TVP18 C-terminal 12 aa] 0.691

---

Tested on: Saccharomyces cerevisiae
Assay: protein stability index of tFT-peptide fusion (C-terminal peptide) (PSI (0-1 scale)); higher = more stable (slower turnover)
Settings: genetic background: das1 deletion; temperature: 30 C
Reported protein stability index is given for each of the following sequences.
Output: the number by itself.

Use these answered entries as a reference point.
Residue codes: FVLFSIFHFFLW
protein stability index: 0.362
//
Residue codes: LLVLPFFSLSRF
protein stability index: 0.774
//
Residue codes: VVRVIWCQFSCF
protein stability index: 0.414

Record lookup: for Saccharomyces cerevisiae, what protein stability index belongs to TIRKCIIKWIKI ? 0.475

Request body: readout protein stability index, system Saccharomyces cerevisiae, query PPWRPVALLLLA . Return the value. 0.247

protein stability index of VYIVLLLLFLRP on Saccharomyces cerevisiae? 0.317

Item: RWRLWVGWGVVG Test system: Saccharomyces cerevisiae Read-out: protein stability index Value: ? 0.521

---

Test system: Saccharomyces cerevisiae
Experiment: protein stability index of tFT-peptide fusion (C-terminal peptide) (PSI (0-1 scale)); higher = more stable (slower turnover)
Settings: genetic background: wild type; temperature: 30 C
Quantity measured: protein stability index

Sample records with protein stability index:
Residue codes: WEDKYPEMGVTV [YHL044W C-terminal 12 aa]
Target entity: Saccharomyces cerevisiae
protein stability index: 0.706
//
Residue codes: GIPNLLLPPHLV [TRM112 C-terminal 12 aa]
Target entity: Saccharomyces cerevisiae
protein stability index: 0.691
//
Residue codes: LIHNFNSRYCHE [LEE1 C-terminal 12 aa]
Target entity: Saccharomyces cerevisiae
protein stability index: 0.691
//
Residue codes: QLESDPPPCDDY [RIM8 C-terminal 12 aa]
Target entity: Saccharomyces cerevisiae
protein stability index: 0.689
//
Residue codes: SSSSTSSSATKN [TPS1 C-terminal 12 aa]
Target entity: Saccharomyces cerevisiae
protein stability index: 0.685
//
Residue codes: PQCGQVLSKGST [YGL132W C-terminal 12 aa]
Target entity: Saccharomyces cerevisiae
protein stability index: 0.69

Form: Entry = SKLGINSGLCTN [ESL1 C-terminal 12 aa] | System = Saccharomyces cerevisiae | protein stability index = ____ 0.688

Query for Saccharomyces cerevisiae: what protein stability index does the record show for LLLAGRKLSLDK [ARK1 C-terminal 12 aa] ? 0.715

Requested read-out protein stability index, target or system Saccharomyces cerevisiae, entry DGKSVNKYGAKK [GUS1 C-terminal 12 aa] 0.699

Which protein stability index is reported with Saccharomyces cerevisiae for this entry: TPENNHLKWLIK [UGX2 C-terminal 12 aa] ? 0.685

---

System: Saccharomyces cerevisiae
Assay: protein stability index of tFT-peptide fusion (C-terminal peptide) (PSI (0-1 scale)); higher = more stable (slower turnover)
Details: genetic background: wild type; temperature: 37 C
Lab note: anything with protein stability index at or over 0.4 counts as 1 (yes); the rest go in 0 (no).

Residue codes: FFSCFFFSVLYR
Class name: 0 (no)

Residue codes: GRTDFSTLLLIC
Class name: 0 (no)

Residue codes: LDFPPLRLILRL
Class name: 1 (yes)

Residue codes: MLVLFCLCYILG
Class name: 0 (no)

Residue codes: WFVCSGVYGSVM
Class name: 1 (yes)

Residue codes: LCVFRFFLFFFL
Class name: 1 (yes)

Hi, just wondering whether LLVFWRLWWSLS shows protein stability index of 0.4 or higher. 0 (no)

Is protein stability index at least 0.4? Consider PCFACIAFVLFP 1 (yes)

// inclusive: protein stability index at least 0.4? input: RPGRWFCFLYCV 0 (no)

State whether the measured protein stability index reaches 0.4, counting equality as reaching it, for LWWTRVILYGYI 1 (yes)

API: above_or_equal(metric=protein stability index, cutoff=0.4) for item FRRSFPFPLFLR 0 (no)

Does VPVWHTVKLYCF have a reported protein stability index of at least 0.4? 0 (no)

Is the recorded value of protein stability index equal to or greater than 0.4 for this sequence? VPWSKIAARLII 1 (yes)

Would you say YVWPKRRGLRVA shows protein stability index at minimum 0.4? 1 (yes)

Does the sequence CLLVCCCFYRNV have recorded protein stability index that is 0.4 or more? 1 (yes)

Threshold query (protein stability index >= 0.4) on PASYPPFIYLSI 1 (yes)

Item RIKVTRRIIIYA with protein stability index of 0.4 or above? 0 (no)

Does the sequence VTLLCRFFMLVF have recorded protein stability index that is 0.4 or more? 1 (yes)

Please indicate if the recorded protein stability index for RGGVCFVVWCGG meets or exceeds 0.4. 1 (yes)

Does the sequence LFFASFLLIGPF have recorded protein stability index that is 0.4 or more? 1 (yes)

Tell me whether protein stability index is at least 0.4 here: GFRVPVVVGVRG 1 (yes)

---

Tested on: Saccharomyces cerevisiae
Assay: protein stability index of tFT-peptide fusion (C-terminal peptide) (PSI (0-1 scale)); higher = more stable (slower turnover)
Details: genetic background: doa10 deletion; temperature: 30 C
Quantity measured: protein stability index
Number only, no unit.

Consider the worked cases shown below.
Residue codes: LLILIVNLRRIG
Target entity: Saccharomyces cerevisiae
Quantity measured: protein stability index
Reported value: 0.198
--
Residue codes: VGVYVWRGVLWA
Target entity: Saccharomyces cerevisiae
Quantity measured: protein stability index
Reported value: 0.184
--
Residue codes: SCCIYVALCRWL
Target entity: Saccharomyces cerevisiae
Quantity measured: protein stability index
Reported value: 0.323

Next sequence, please.
Look up protein stability index for this sequence: SLPIFSGVASVR 0.642
